All values here come from ChEMBL document CHEMBL1157539.

# System: Plasmodium falciparum
# assay text: GSK_TCMDC: Inhibition of Plasmodium falciparum 3D7 in whole red blood cells, using parasite LDH activity as an index of growth. Test compounds present at 2uM
# Assay type: functional
observed property: Inhibition (%)

molecule	measured result
Cc1cccc2nc(-c3ccc(-c4ccc(CN5CCOCC5)cc4)cc3)[nH]c12.O=C(O)C(F)(F)F	92
CSCCC(C(=O)O)N1C(=O)c2ccccc2C1=O (stereo unspecified)	91
N#Cc1cccc(C(=O)Nc2cccc(-c3ccc(C(=O)Nc4cccnc4)cc3)c2)c1	89
Cc1nc(-c2nc(NCCc3c(C)noc3C)ncc2-c2ccsc2)sc1C	87
Cc1[nH]c(C)c(-c2ccc(CCc3ccc(N)cc3)cc2)c(=O)c1Cl	97
CCN1CCC(N(Cc2ccc(-c3ccc(C(F)(F)F)cc3)cc2)C(=O)Cn2nc(C)c(=O)cc2SCc2ccc(F)cc2)CC1.O=C(O)C(O)C(O)C(=O)O	94
